- PROCEDURE_TEXT: in vitro
- Assay type: in vitro ADME, human
- CONDITION_PARAMETERS: human; 11 h incubation, 37 °C, 7 μM peptide, serum purified by DEAE Affi-Gel Blue (albumin-depleted), RP-HPLC area under the curve of intact peptide; means ± S.E.M. of three experiments in triplicate
Ends that are not written are not given here.
MEASURED_ENDPOINT: remaining at 11 h, 7 μM (%)

>  <ITEM_SEQUENCE>
HFDGVYTDYFSRYLEEKATNEFIDWLLKGQE [eGLP-1]

>  <U>
%

>  <OBSERVED>
99.3

$$$$
>  <ITEM_SEQUENCE>
HSEGTFTNDVTRLLEEKATSEFIAWLLKGLE [pGLP-1]

>  <U>
%

>  <OBSERVED>
96.4

$$$$
